System: Fibroblast
Test name: Multiplex assay against human fibroblast
Assay type: toxicity, cell-based
Condition parameters: 48 h, 10 µM, compound concentration 10 uM, replicate 2
Criterion: Population Healthy Nuclei (%) strictly less than 50%. Met: YES. Not met: NO.

* O=C(CCCc1ccccc1)Nc1nc2ccccc2c(=O)s1 | YES
* CC(=O)Nc1cccc2c1c(Sc1ccc(Cl)cc1)c(C)n2CC(=O)O | YES
* Cc1sc2c(c1C)C(c1ccc(Cl)cc1)=N[C@@H](CC(=O)NCCCCCCCCNC(=O)COc1cccc3c1C(=O)N(C1CCC(=O)NC1=O)C3=O)c1nnc(C)n1-2 (stereo not given in full) | YES
* CC(C)COc1ccc(CNC(=O)N(Cc2ccc(F)cc2)C2CCN(C)CC2)cc1 | NO
* NCCc1cn(S(=O)(=O)c2c(Cl)nc3sccn23)c2ccccc12.O=C(O)C(=O)O | NO
* CCCOc1ccc2[nH]cc(C3=CCNCC3)c2n1.Cl | NO
* CN1CCN(c2cc(-c3ccccc3)nc(N)n2)CC1 | YES
* CCCCC1=NC2(CCCC2)C(=O)N1Cc1ccc(-c2ccccc2-c2nnn[nH]2)cc1 | YES
* CCCCCC(O)/C=C/[C@H]1C(=O)CC(O)C1C/C=C\CCCC(=O)O (stereo not given in full) | NO
* Cc1cnc(-c2cc(N3CCN(C(=O)CCS(C)(=O)=O)CC3)ncc2Cl)c(C)c1 | NO

Prompt line: In the record for `Cc1onc(-c2ccccc2Cl)c1C(=O)N(C)c1ccc(Cl)cc1` , is Population Healthy Nuclei (%) less than 50%?
Response line: NO

Prompt line: In the record for `N#Cc1c(Oc2cccc(OS(=O)(=O)CCCC(F)(F)F)c2)cccc1C(F)(F)F` , is Population Healthy Nuclei (%) less than 50%?
Response line: YES

Prompt line: In the record for `CN(C)C(=O)Cn1cc(-c2ccc(-c3cncc4ccccc34)cc2)cn1` , is Population Healthy Nuclei (%) less than 50%?
Response line: YES

Prompt line: In the record for `Cc1c(CC(=O)O)c2cccnc2n1Cc1ccc(S(C)(=O)=O)cc1C(F)(F)F` , is Population Healthy Nuclei (%) less than 50%?
Response line: NO

Prompt line: In the record for `N#Cc1cc(F)cc(-c2nc(-c3ccc(F)cn3)no2)c1` , is Population Healthy Nuclei (%) less than 50%?
Response line: YES

Prompt line: In the record for COC[C@@H](c1ccc(C(F)(F)F)cc1)N1CCN(C2(C)CCN(C(=O)c3c(C)ncnc3C)CC2)C[C@@H]1C.O=C(O)/C=C\C(=O)O [VICRIVIROC MALEATE] , is Population Healthy Nuclei (%) less than 50%?
Response line: YES
